Provide the reported inhibition at 20 µM of each item.
Target: UniProtKB A0A194QJK0
Sequence (A0A194QJK0 entry or part of it): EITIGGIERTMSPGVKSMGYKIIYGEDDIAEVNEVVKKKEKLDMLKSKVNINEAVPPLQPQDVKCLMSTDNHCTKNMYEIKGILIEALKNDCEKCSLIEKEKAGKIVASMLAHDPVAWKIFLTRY
Test: Fluorescence competitive binding assay (1-NPN displacement), wildtype PxutCSP19
Settings: read-out: F.D. (fluorescent displacement rate of ligands), Wildtype (WT); ligand at 20 μM; PxutCSP19/1-NPN each 2 μM; NB = no binding
Excerpt: The open reading frame (ORF) of PxutCSP19 was cloned with a PrimeSTAR®® Max DNA Polymerase (TaKaRa, Liaoning, Dalian, China) and gene-specific primers containing restriction enzyme sites (BamH I and Xho I) (Table S2). The PCR products were detected on a 1.5% (w/v) agarose gel, and the expected bands were cut and purified using a HiPure Gel Pure DNA Mini Kit (Magen, Guangzhou, China). […]
Respond with the bare value in %.

Entry CCCC(=O)OCC [Ethyl butyrate] under UniProtKB A0A194QJK0 had inhibition at 20 µM of 28.7

inhibition at 20 µM for UniProtKB A0A194QJK0 with input CS/C(C)=N\OC(=O)N(C)SN(C)C(=O)O/N=C(\C)SC [Thiodicarb, reference compound] equals 37.4

Short answer on UniProtKB A0A194QJK0 for CC1(C)C(C=C(Cl)Cl)C1C(=O)OC(C#N)c1cccc(Oc2ccccc2)c1 (stereo not drawn) [α-Cypermethrin, reference compound] , inhibition at 20 µM: 5.65

Given the compound C=CC(C)(O)CCC=C(C)CCC=C(C)C (mixture of isomers) [Nerolidol] and test system UniProtKB A0A194QJK0, the measured inhibition at 20 µM is 12.4
